Test system: Acinetobacter haemolyticus
Protocol Summary: Antimicrobial activity against Acinetobacter haemolyticus clinical isolate after 18 to 22 hrs by broth microdilution method
Format: functional
Quantity Kind: MIC90
Don't forget the unit after the value.

Would you mind telling me what MIC90 value was observed for C[C@@H](O)[C@H]1C(=O)N2C(C(=O)O)=C(SCCNC=N)C[C@H]12 [IMIPENEM ANHYDROUS] ?
0.5 µg/mL

Would you mind telling me what MIC90 value was observed for CCN1CCN(C(=O)N[C@@H](C(=O)N[C@@H]2C(=O)N3[C@@H]2SC(C)(C)[C@@H]3C(=O)O)c2ccccc2)C(=O)C1=O [PIPERACILLIN] ?
128 µg/mL

Would you mind telling me what MIC90 value was observed for CO/N=C(\C(=O)N[C@@H]1C(=O)N2C(C(=O)O)=C(CSc3nc(=O)c(O)nn3C)CS[C@H]12)c1csc(N)n1 [CEFTRIAXONE] ?
8 µg/mL

Would you mind telling me what MIC90 value was observed for C[C@H]1COc2c(N3CCN(C)CC3)c(F)cc3c(=O)c(C(=O)O)cn1c23.C[C@H]1COc2c(N3CCN(C)CC3)c(F)cc3c(=O)c(C(=O)O)cn1c23.O [LEVOFLOXACIN] ?
2 µg/mL
